Where do the numbers come from? From paper PMC10660610.

- TESTED ON: MOR (mu-opioid receptor) (Rattus norvegicus, UniProt P33535)
- Sequence (P33535 whole entry): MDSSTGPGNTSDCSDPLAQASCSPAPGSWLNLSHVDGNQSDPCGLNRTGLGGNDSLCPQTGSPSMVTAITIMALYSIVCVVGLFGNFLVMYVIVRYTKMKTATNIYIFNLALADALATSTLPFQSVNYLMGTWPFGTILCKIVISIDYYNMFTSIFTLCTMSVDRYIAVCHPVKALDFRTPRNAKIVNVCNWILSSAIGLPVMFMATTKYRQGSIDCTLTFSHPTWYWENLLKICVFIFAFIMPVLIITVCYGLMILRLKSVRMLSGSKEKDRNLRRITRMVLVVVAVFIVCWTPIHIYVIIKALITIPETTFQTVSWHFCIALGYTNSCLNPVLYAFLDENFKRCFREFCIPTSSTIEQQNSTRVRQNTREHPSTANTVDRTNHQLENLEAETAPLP
Listed here are molecules together with their documented log10(Ki).
Recall that a logarithmic scale is used here: each number is log10 of Ki in nM.

Recorded results for 7 molecules are shown here.
MOLECULE	log10(Ki)
O=C(CN1CC[C@]23c4c5ccc(O)c4O[C@H]2[C@@H](O)C=C[C@H]3[C@H]1C5)N1CCOCC1 [10a]	2.60
Oc1ccc2c3c1O[C@H]1[C@@H](O)C=C[C@H]4[C@@H](C2)N(CCN2CCCC2)CC[C@@]341	1.79
Oc1ccc2c3c1O[C@H]1[C@@H](O)C=C[C@H]4[C@@H](C2)N(CCN2CCOCC2)CC[C@@]341	2.59
Oc1ccc2c3c1O[C@H]1[C@@H](O)C=C[C@H]4[C@@H](C2)N(CCN2CCCCC2)CC[C@@]341	2.64
O=C1CC[C@@]2(O)[C@H]3Cc4ccc(O)c5c4[C@@]2(CCN3CC(=O)N2CCCCC2)[C@H]1O5 [12b]	3.17
O=C(CN1CC[C@]23c4c5ccc(O)c4O[C@H]2[C@@H](O)C=C[C@H]3[C@H]1C5)N1CCCCC1 [10b]	3.18
O=C(CN1CC[C@]23c4c5ccc(O)c4O[C@H]2[C@@H](O)C=C[C@H]3[C@H]1C5)N1CCCC1 [10c]	2.72

Recorded log10(Ki) for O=C1CC[C@@]2(O)[C@H]3Cc4ccc(O)c5c4[C@@]2(CCN3CC(=O)N2CCOCC2)[C@H]1O5 [12a] on MOR (mu-opioid receptor) (Rattus norvegicus, UniProt P33535) was 2.84
